- PROTOCOL_TEXT: Antimeasles activity determined
- Assay type: functional
READOUT_NAME: pIC50
Answers are plain numbers, as −log10 of the molar value.

Looking up NC1=NC(=O)C2C(N=C(c3ccccc3)N2C2O[C@H](CO)C(O)[C@H]2O)C(=O)N1 (single isomer, unassigned) , I see its pIC50 listed as 6.30

---

Exercise: state measured IC50 for each of the molecules provided.
- PROTOCOL_TEXT: Tested for inhibition against 42 nM ATPase activity of human NTPase/Helicase Suv3 (delta1-159) in presence of ATP adjusted to 1*10e-5 of Km of enzyme
- Assay type: functional
Numbers only, in µM.

| MOLECULE | VALUE_UNITS | REPORTED |
| --- | --- | --- |
| O=C1NNC(=O)C2C(N=CN2C2O[C@H](COP(=O)(O)OP(=O)(O)OP(=O)(O)O)[C@@H](O)[C@H]2O)N1 (some centres not stated) | µM | 125 |

Looking up N=C1N=C(N)N=C(N)C2N=CN(C3O[C@@H](COP(=O)(O)OP(=O)(O)OP(=O)(O)O)[C@H](O)[C@@H]3O)C12 (some centres not stated) , I see its IC50 listed as 40

---

- Tested on: Hepatitis C virus
- PROTOCOL_TEXT: Tested for inhibition against Helicase activity of hepatitis C virus (HCV) in presence of ATP adjusted to 105 uM and 4.7 pM of RNA duplex substrate
- Format: functional, Hepacivirus hominis
READOUT_NAME: IC50 (µM)
Give bare numbers, in µM.

Some compounds with known IC50 results, for comparison:
| COMPOUND | TARGET_OR_SYSTEM | REPORTED |
| --- | --- | --- |
| NC1=NC(=O)C2N=CNC2C(=O)N1 (stereo unspecified) | Hepatitis C virus | 200 |
| NC1=NC(=O)C2C(N=CN2[C@H]2O[C@H](CO)[C@@H](O)[C@H]2O)C(=O)N1 (stereo partly specified) | Hepatitis C virus | 12 |

Looking up NC1=NC(=O)C2C(N=CN2COCCOCc2ccccc2)C(=O)N1 (stereo unspecified) , I see its IC50 listed as 5.5

---

- Tested on: Japanese encephalitis virus
- PROTOCOL_TEXT: Tested for inhibition against […] ATPase activity of Japanese encephalitis virus (JEV) in presence of ATP adjusted to 1*10e-4 of Km of enzyme
- Assay type: functional
Exercise: state measured pKi for each of the compounds provided.
Give bare numbers, as −log10 of the molar value.

| COMPOUND | READOUT_NAME | REPORTED |
| --- | --- | --- |
| N=C1N=C(N)N=C(N)C2N=CN(C3O[C@@H](COP(=O)(O)OP(=O)(O)OP(=O)(O)O)[C@H](O)[C@@H]3O)C12 (some centres not stated) | pKi | 5.46 |

Next compound, pKi to be filled in.
Looking up O=C1NNC(=O)C2C(N=CN2C2O[C@H](COP(=O)(O)OP(=O)(O)OP(=O)(O)O)[C@@H](O)[C@H]2O)N1 (some centres not stated) , I see its pKi listed as 4.82

---

- PROTOCOL_TEXT: Tested for inhibition against 42 pM ATPase activity of human NTPase/Helicase Suv3 (delta1-159) in presence of ATP adjusted to 1*10e-4 of Km of enzyme
- Assay type: functional
Exercise: state measured pKi for each of the compounds provided.
One number for each entry, as −log10 of the molar value.

| COMPOUND | REPORTED |
| --- | --- |
| N=C1N=C(N)N=C(N)C2N=CN(C3O[C@@H](COP(=O)(O)OP(=O)(O)OP(=O)(O)O)[C@H](O)[C@@H]3O)C12 (some centres not stated) | 4.82 |

Next compound, pKi to be filled in.
Looking up O=C1NNC(=O)C2C(N=CN2C2O[C@H](COP(=O)(O)OP(=O)(O)OP(=O)(O)O)[C@@H](O)[C@H]2O)N1 (some centres not stated) , I see its pKi listed as 4.35

---

Exercise: state measured pIC50 for each of the molecules provided.
- PROTOCOL_TEXT: Tested for inhibition against Helicase activity of human NTPase/Helicase Suv3 (delta1-159) in presence of ATP adjusted to 4.2 uM and 4.7 pM of DNA substrate
- Format: functional
pIC50: −log10 of the molar value.

Some molecules with known pIC50 results, for comparison:
| MOLECULE | pIC50 |
| --- | --- |
| NC1=NC(=O)C2C(N=CN2COCCOCc2ccccc2)C(=O)N1 (stereo unspecified) | 5.30 |
| NC1=NC(=O)C2C(N=CN2[C@H]2CC(O)[C@@H](CO)O2)C(=O)N1 (single isomer, unassigned) | < 3.30 |
| O=C1NC2C(N=CN2Cc2ccccc2)C(=O)N(Cc2ccccc2)N1 (stereo unspecified) | < 3.30 |
| NC1=NC(=O)C2C(N=CN2CCOCP(=O)(O)O)C(=O)N1 (stereo unspecified) | < 3.30 |
| NC1=NC(=O)C2C(N=CN2[C@H]2O[C@H](CO)[C@@H](O)[C@H]2O)C(=O)N1 (stereo partly specified) | < 3.30 |
| N=C1N=C(N)N=C(N)C2N=CN(C3O[C@@H](CO)[C@H](O)[C@@H]3O)C12 (stereo partly specified) | < 3.30 |
| CO[C@@H]1[C@H](O)[C@@H](CO)O[C@H]1n1cnc2c(=O)[nH]c(N)nc(=O)c21 | < 3.30 |
| O=C1NNC(=O)C2C(N=CN2C2O[C@H](CO)C(O)[C@H]2O)N1 (single isomer, unassigned) | < 3.30 |
| O=C1NC2N=CNC2C(=O)N(Cc2ccccc2)N1 (stereo unspecified) | < 3.30 |
| Nc1nc(=O)c2c(ncn2[C@@H]2C[C@H](O)[C@@H](CO)O2)c(=O)[nH]1 | 4.55 |

Next molecule, pIC50 to be filled in.
Looking up `CO[C@@H]1[C@H](O)[C@@H](CO)O[C@H]1n1cnc2c(=O)[nH][nH]c(=O)c21` , I see its pIC50 listed as < 3.30

---

- System: Japanese encephalitis virus
- PROTOCOL_TEXT: Tested for inhibition against 2.35 nM ATPase activity of Japanese encephalitis virus (JEV) in presence of ATP adjusted to 1*10e-5 of Km of enzyme
- Type: functional
READOUT_NAME: IC50 (µM)
One number for each entry, in µM.

| COMPOUND | IC50 / µM |
| --- | --- |
| O=C1NNC(=O)C2C(N=CN2C2O[C@H](COP(=O)(O)OP(=O)(O)OP(=O)(O)O)[C@@H](O)[C@H]2O)N1 (some centres not stated) | 40 |

Next compound, IC50 to be filled in.
Looking up N=C1N=C(N)N=C(N)C2N=CN(C3O[C@@H](COP(=O)(O)OP(=O)(O)OP(=O)(O)O)[C@H](O)[C@@H]3O)C12 (some centres not stated) , I see its IC50 listed as 12

---

- PROTOCOL_TEXT: Tested for inhibition against Helicase activity of human NTPase/Helicase Suv3 (delta1-159) in presence of ATP adjusted to 4.2 uM and 4.7 pM of RNA duplex substrate
- Format: functional
Exercise: state measured pIC50 for each of the compounds provided.
Answers are plain numbers, as −log10 of the molar value.

| COMPOUND | pIC50 |
| --- | --- |
| NC1=NC(=O)C2C(N=CN2[C@H]2O[C@H](CO)[C@@H](O)[C@H]2O)C(=O)N1 (stereo partly specified) | 5.46 |
| Nc1nc(=O)c2c(ncn2[C@@H]2C[C@H](O)[C@@H](CO)O2)c(=O)[nH]1 | 3.82 |
| NC1=NC(=O)C2C(N=CN2COCCOCc2ccccc2)C(=O)N1 (stereo unspecified) | 5.22 |

Looking up NC1=NC(=O)C2N=CNC2C(=O)N1 (stereo unspecified) , I see its pIC50 listed as 3.30

---

Exercise: state measured IC50 for each of the molecules provided.
- Tested on: Hepatitis C virus
- PROTOCOL_TEXT: Tested for inhibition against Helicase activity of hepatitis C virus (HCV) in presence of ATP adjusted to 105 uM and 4.7 pM of RNA duplex substrate
- Format: functional, Hepacivirus hominis

Some molecules with known IC50 results, for comparison:
| MOLECULE | IC50 |
| --- | --- |
| Nc1nc(=O)c2c(ncn2[C@@H]2C[C@H](O)[C@@H](CO)O2)c(=O)[nH]1 | > 500 µM |
| O=C1NC2C(N=CN2Cc2ccccc2)C(=O)N(Cc2ccccc2)N1 (stereo not drawn) | > 500 µM |

Next molecule, IC50 to be filled in.
Looking up O=C1NC2N=CNC2C(=O)N(Cc2ccccc2)N1 (stereo not drawn) , I see its IC50 listed as > 500 µM
